- EXPERIMENTAL PROTOCOL: Organ distribution of ICB/11/D-8
- Format: in vivo
- EXPERIMENTAL CONTEXT: Swiss, mouse, brain; 12 hr; N=4 mice; read-out: Organ distribution: Brain

>  <COMPOUND STRUCTURE STRING>
COc1cc(C=O)cc2c1[nH]c1ccccc12

>  <concentration at 12 hr (ng/g)>
3600

$$$$

---

- EXPERIMENTAL PROTOCOL: Organ distribution of ICB/11/D-8
- Type: in vivo
- EXPERIMENTAL CONTEXT: Swiss, mouse, brain; 4 hr; N=4 mice; read-out: Organ distribution: Brain

>  <COMPOUND STRUCTURE STRING>
COc1cc(C=O)cc2c1[nH]c1ccccc12

>  <RESULT UNITS>
ng/g

>  <concentration at 4 hr>
43300

$$$$

---

- EXPERIMENTAL PROTOCOL: Organ distribution of ICB/11/D-8
- Assay type: in vivo
- EXPERIMENTAL CONTEXT: Swiss, mouse, kidneys; 12 hr; N=4 mice; read-out: Organ distribution: Kidneys
- Protocol: Organ Distribution of ICB/11/D-8 (ug/100 mg tissue, N=4 mice, 50

>  <COMPOUND STRUCTURE STRING>
COc1cc(C=O)cc2c1[nH]c1ccccc12

>  <concentration at 12 hr>
15800 ng/g

$$$$

---

- EXPERIMENTAL PROTOCOL: Organ distribution of ICB/11/D-8
- Assay type: in vivo
- EXPERIMENTAL CONTEXT: male, Swiss, mouse, testes; 2 hr; N=4 mice; read-out: Organ distribution: Testes
ASSAY ENDPOINT: concentration at 2 hr

>  <COMPOUND>
COc1cc(C=O)cc2c1[nH]c1ccccc12 [Compound I, 1-methoxy-3-formyl-9H carbazole]

>  <RESULT>
313000 ng/g

$$$$

---

- TARGET DESC: PDE-4
- EXPERIMENTAL PROTOCOL: Phosphodiesterase 4 assay, [3H]cAMP SPA enzyme assay, enzyme preparation from rat heart
- Type: biochemical
- EXPERIMENTAL CONTEXT: synthetically prepared compound (chemical origin)
pIC50: −log10 of the molar value.
ASSAY ENDPOINT: pIC50

>  <COMPOUND STRUCTURE STRING>
COc1cc(C=O)cc2c1[nH]c1ccccc12

>  <ASSAY ENDPOINT>
pIC50

>  <QUANTITATIVE READOUT>
7.30

$$$$

---

- EXPERIMENTAL PROTOCOL: Organ distribution of ICB/11/D-8
- Assay type: in vivo
- EXPERIMENTAL CONTEXT: Swiss, mouse, stomach; 4 hr; N=4 mice; read-out: Organ distribution: Stomach

>  <COMPOUND STRUCTURE STRING>
COc1cc(C=O)cc2c1[nH]c1ccccc12

>  <concentration at 4 hr>
227000 ng/g

$$$$

---

- EXPERIMENTAL PROTOCOL: Organ distribution of ICB/11/D-8
- Assay type: in vivo
- EXPERIMENTAL CONTEXT: Swiss, mouse, liver; 2 hr; N=4 mice; read-out: Organ distribution: Liver
- Procedure: Organ Distribution of ICB/11/D-8 (ug/100 mg tissue, N=4 mice, 50

>  <COMPOUND STRUCTURE STRING>
COc1cc(C=O)cc2c1[nH]c1ccccc12

>  <concentration at 2 hr (ng/g)>
168000

$$$$
